# TEST METHOD NOTES: Drug level in ICR mouse plasma at 10 mg/kg, po measured after 1.5 hrs by LC/MS/MS analysis
# Format: ADME, organism-based
# concentration at 1.5 h per record follows
Report the value in ng/g with no unit label.

| COMPOUND SMILES | ASSAY ENDPOINT | UNITS OF MEASURE | MEASURED NUMBER |
| --- | --- | --- | --- |
| O=C(Nc1cncc(OCC2CCN(Cc3ccccc3)CC2)c1)c1ccnc(NC(=O)C2CC2)c1 | concentration at 1.5 h | ng/g | 62.9 |

Return concentration at 1.5 h (reported value) for this compound: O=C(Nc1cncc(OCC2CCN(Cc3ccc(F)cc3)CC2)c1)c1ccnc(NC(=O)C2CC2)c1
343

---

# MEASUREMENT TARGET: UniProt P22303
# Sequence (P22303 whole entry): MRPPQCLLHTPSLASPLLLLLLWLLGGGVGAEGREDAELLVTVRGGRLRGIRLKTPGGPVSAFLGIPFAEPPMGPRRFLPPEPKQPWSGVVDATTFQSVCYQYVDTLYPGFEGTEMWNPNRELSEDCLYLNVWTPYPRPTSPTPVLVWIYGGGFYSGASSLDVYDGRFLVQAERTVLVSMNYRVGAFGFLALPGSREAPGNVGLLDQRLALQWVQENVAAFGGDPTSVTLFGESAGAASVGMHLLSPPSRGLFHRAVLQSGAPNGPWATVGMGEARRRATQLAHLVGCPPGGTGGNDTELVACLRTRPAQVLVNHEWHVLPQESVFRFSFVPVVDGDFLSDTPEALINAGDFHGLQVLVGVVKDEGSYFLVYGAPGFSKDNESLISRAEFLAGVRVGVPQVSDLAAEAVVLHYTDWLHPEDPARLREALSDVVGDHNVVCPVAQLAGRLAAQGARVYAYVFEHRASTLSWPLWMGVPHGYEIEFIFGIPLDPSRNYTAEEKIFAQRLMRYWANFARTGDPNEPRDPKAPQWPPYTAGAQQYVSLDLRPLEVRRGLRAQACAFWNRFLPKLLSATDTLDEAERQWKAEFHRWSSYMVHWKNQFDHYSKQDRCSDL
# TEST METHOD NOTES: Inhibition of human recombinant AChE preincubated for 1 min in presence of DNTB followed by addition of acetylthiocholine iodide substrate and measured after 20 mins by Ellman's method
ASSAY ENDPOINT: IC50 (µM)
// units = µM; emit number, no label

| COMPOUND SMILES | IC50 (µM) |
| --- | --- |
| O=C(NCC1CCN(Cc2ccc(F)c(F)c2)CC1)c1cncc(NC(=O)c2ccnc(NC(=O)C3CC3)c2)c1 | 3.07 |
| O=C(NCC1CCN(Cc2ccccc2F)CC1)c1n[nH]c2ccc(-c3cccnc3)cc12 | 2.18 |
| Cc1ccccc1CN1CCC(CNC(=O)c2cncc(NC(=O)c3ccnc(NC(=O)C4CC4)c3)c2)CC1 | 4.09 |
| Cc1cccc(CN2CCC(CNC(=O)c3cncc(NC(=O)c4ccnc(NC(=O)C5CC5)c4)c3)CC2)c1 | 6360 |

Consider the compound O=C(NCC1CCN(Cc2cccc(Cl)c2)CC1)c1cncc(NC(=O)c2ccnc3[nH]ccc23)c1 and give its recorded IC50.
1.31

Please indicate IC50 recorded for O=C(NCC1CCN(Cc2ccccc2)CC1)c1cncc(NC(=O)c2ccnc(NC(=O)C3CC3)c2)c1
1.1

State, in one line, measured IC50 of O=C(Nc1cncc(OCC2CCN(Cc3ccccc3Cl)CC2)c1)c1ccnc(NC(=O)C2CC2)c1
0.0816

Supply reported IC50 belonging to this compound: O=C(NCC1CCN(Cc2ccccc2)CC1)c1n[nH]c2ccc(-c3cccnc3)cc12
1.09

---

# MEASUREMENT TARGET: Acetylcholinesterase (Electrophorus electricus)
# Sequence (O42275 whole entry): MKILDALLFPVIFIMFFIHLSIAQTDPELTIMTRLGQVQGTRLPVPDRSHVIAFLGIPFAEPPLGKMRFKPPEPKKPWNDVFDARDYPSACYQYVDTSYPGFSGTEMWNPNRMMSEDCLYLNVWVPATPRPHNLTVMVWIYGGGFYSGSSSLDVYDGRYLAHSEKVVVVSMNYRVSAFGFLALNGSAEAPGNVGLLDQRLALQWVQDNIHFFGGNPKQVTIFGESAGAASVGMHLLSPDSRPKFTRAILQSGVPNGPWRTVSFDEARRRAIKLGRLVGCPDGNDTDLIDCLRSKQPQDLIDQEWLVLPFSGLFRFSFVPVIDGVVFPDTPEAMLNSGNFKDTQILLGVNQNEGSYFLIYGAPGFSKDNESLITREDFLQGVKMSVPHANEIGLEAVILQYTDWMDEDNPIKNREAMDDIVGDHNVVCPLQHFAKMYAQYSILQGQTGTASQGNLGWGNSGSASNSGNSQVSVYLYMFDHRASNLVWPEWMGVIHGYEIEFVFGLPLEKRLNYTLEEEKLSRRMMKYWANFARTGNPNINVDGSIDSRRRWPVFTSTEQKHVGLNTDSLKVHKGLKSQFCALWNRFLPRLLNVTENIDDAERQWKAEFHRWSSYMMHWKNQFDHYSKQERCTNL
# TEST METHOD NOTES: Inhibition of electric eel recombinant AChE preincubated for 1 min in presence of DNTB followed by addition of acetylthiocholine iodide substrate and measured after 20 mins by Ellman's method
ASSAY ENDPOINT: pIC50
// returns pIC50 (minus log10 of molar concentration), number only

| COMPOUND SMILES | MEASUREMENT TARGET | pIC50 |
| --- | --- | --- |
| O=C(Nc1cccc(OCC2CCN(Cc3ccccc3)CC2)c1)c1ccnc(NC(=O)C2CC2)c1 | Acetylcholinesterase (Electrophorus electricus) | 6.07 |
| O=C(NC1CCN(Cc2ccccc2)CC1)c1cncc(NC(=O)c2ccnc3[nH]ccc23)c1 | Acetylcholinesterase (Electrophorus electricus) | 6.51 |
| Cc1cccc(CN2CCC(CNC(=O)c3cncc(NC(=O)c4ccnc(NC(=O)C5CC5)c4)c3)CC2)c1 | Acetylcholinesterase (Electrophorus electricus) | 5.38 |

Then this compound:
Annotate the compound O=C(NCC1CCN(Cc2ccccc2)CC1)c1cncc(NC(=O)c2ccnc(NC(=O)C3CC3)c2)c1 with its measured pIC50.
5.96

---

Below, each entry is listed alongside its reported IC50.
# MEASUREMENT TARGET: Glycogen synthase kinase-3 beta (Homo sapiens, UniProt P49841)
# Sequence (P49841 whole entry): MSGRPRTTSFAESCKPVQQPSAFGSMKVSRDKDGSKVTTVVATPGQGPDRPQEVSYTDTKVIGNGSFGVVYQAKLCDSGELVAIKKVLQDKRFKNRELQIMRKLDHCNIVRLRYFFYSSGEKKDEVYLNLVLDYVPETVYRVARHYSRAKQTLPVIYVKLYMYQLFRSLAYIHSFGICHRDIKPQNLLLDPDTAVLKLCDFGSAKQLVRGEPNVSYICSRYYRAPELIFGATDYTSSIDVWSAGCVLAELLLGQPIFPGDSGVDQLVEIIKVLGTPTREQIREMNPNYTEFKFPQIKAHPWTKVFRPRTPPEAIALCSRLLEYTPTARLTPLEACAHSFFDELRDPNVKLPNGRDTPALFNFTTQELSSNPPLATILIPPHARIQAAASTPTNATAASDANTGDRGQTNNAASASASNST
# TEST METHOD NOTES: Inhibition of human recombinant N-terminal His-tagged GSK3beta expressed in Escherichia coli using RRRPASVPPSPSLS RHS(pS)HQRR as substrate incubated for 30 mins in presence of ATP by Kinase-Glo reagent based luminescence assay
The figure you give is taken to be in nM; do not add the unit.

Param request: IC50 | system Glycogen synthase kinase-3 beta (Homo sapiens, UniProt P49841) | item O=C(NCC1CCN(Cc2ccccc2F)CC1)c1cncc(NC(=O)c2ccnc(NC(=O)C3CC3)c2)c1
164

Write down the reported IC50 (system: Glycogen synthase kinase-3 beta (Homo sapiens, UniProt P49841)) of O=C(NC1CCN(Cc2ccccc2)CC1)c1cncc(NC(=O)c2ccnc3[nH]ccc23)c1
6800

---

# MEASUREMENT TARGET: Glycogen synthase kinase-3 beta (Homo sapiens)
# TEST METHOD NOTES: Inhibition of human recombinant N-terminal His-tagged GSK3beta expressed in Escherichia coli using RRRPASVPPSPSLS RHS(pS)HQRR as substrate incubated for 30 mins in presence of ATP by Kinase-Glo reagent based luminescence assay
ASSAY ENDPOINT: IC50 (nM)
Write the value in nM as a bare number.

The following compounds have reported results that may help.
| COMPOUND SMILES | IC50 / nM |
| --- | --- |
| O=C(NCC1CCN(Cc2ccccc2)CC1)c1cncc(NC(=O)c2ccnc(NC(=O)C3CC3)c2)c1 | 305 |
| O=C(Nc1cncc(OCC2CCN(Cc3ccccc3)CC2)c1)c1ccnc2[nH]ccc12 | 837 |
| O=C(NCCC1CCN(Cc2cccc(Cl)c2)CC1)c1cncc(NC(=O)c2ccnc(NC(=O)C3CC3)c2)c1 | 152 |

Give IC50 for the following compound: O=C(Nc1cncc(OC2CCN(Cc3ccccc3)CC2)c1)c1ccnc(NC(=O)C2CC2)c1
734

---

Below: a set of entries, each annotated with reported IC50.
# MEASUREMENT TARGET: UniProt:P49841
# TEST METHOD NOTES: Inhibition of human recombinant N-terminal His-tagged GSK3beta expressed in Escherichia coli using RRRPASVPPSPSLS RHS(pS)HQRR as substrate incubated for 30 mins in presence of ATP by Kinase-Glo reagent based luminescence assay
Just the number in nM, nothing appended.

| COMPOUND SMILES | MEASURED NUMBER |
| --- | --- |
| O=C(Nc1cncc(OCC2CCN(Cc3ccccc3F)CC2)c1)c1ccnc(NC(=O)C2CC2)c1 | 77 |

Provide measured IC50 value, entry: O=C(NCC1CCN(Cc2ccccc2F)CC1)c1n[nH]c2ccc(-c3cccnc3)cc12
79

For O=C(Nc1cncc(C(=O)NC2CCN(Cc3ccccc3)CC2)c1)c1ccnc(NC(=O)C2CC2)c1 , write its IC50.
81

Supply measured IC50 of O=C(NCC1CCN(Cc2ccc(F)cc2)CC1)c1cncc(NC(=O)c2ccnc(NC(=O)C3CC3)c2)c1 in your reply.
244

Let me know recorded IC50 for CC(=O)Nc1cc(C(=O)Nc2cncc(OCC3CCN(Cc4ccc(F)cc4)CC3)c2)ccn1 , thanks.
3510

Item O=C(Nc1cncc(C(=O)NC2CCN(Cc3cccc(Cl)c3)CC2)c1)c1ccnc(NC(=O)C2CC2)c1 : provide IC50
63

For the compound O=C(NC1CCN(Cc2ccc(F)cc2)CC1)c1cncc(NC(=O)c2ccnc3[nH]ccc23)c1 , give its measured IC50 value.
4930

---

# TEST METHOD NOTES: Cmax in Sprague-Dawley rat at 10 mg/kg, po measured up to 24 hrs by LC-MS/MS analysis
# Assay type: ADME, organism-based
# Design: route oral, dose 10 mg/kg, time <=24
# SETUP CONDITIONS: in vivo
ASSAY ENDPOINT: Cmax (ng/mL)
Give just the number in ng/mL; leave the unit off.

| COMPOUND SMILES | UNITS OF MEASURE | Cmax |
| --- | --- | --- |
| O=C(Nc1cncc(OCC2CCN(Cc3ccc(F)cc3)CC2)c1)c1ccnc(NC(=O)C2CC2)c1 | ng/mL | 159 |

# evaluate next
Identify the reported Cmax for the following entry. O=C(Nc1cncc(OCC2CCN(Cc3ccccc3)CC2)c1)c1ccnc(NC(=O)C2CC2)c1
47.1

---

Attribute: Cmax
# TEST METHOD NOTES: Cmax in Sprague-Dawley rat at 1 mg/kg, iv measured up to 24 hrs by LC-MS/MS analysis
# Format: ADME, organism-based
# Set-up: route intravenous, dose 1 mg/kg, time <=24
# SETUP CONDITIONS: in vivo
Write the numeric value and follow it with the unit.

| COMPOUND SMILES | ASSAY ENDPOINT | RESULT |
| --- | --- | --- |
| O=C(Nc1cncc(OCC2CCN(Cc3ccc(F)cc3)CC2)c1)c1ccnc(NC(=O)C2CC2)c1 | Cmax | 200 ng/mL |

Please look at the following compound next.
Consider the compound O=C(Nc1cncc(OCC2CCN(Cc3ccccc3)CC2)c1)c1ccnc(NC(=O)C2CC2)c1 and give its recorded Cmax.
98.3 ng/mL

---

# MEASUREMENT TARGET: Cholinesterase (Homo sapiens, UniProt P06276)
# Sequence (P06276 whole entry): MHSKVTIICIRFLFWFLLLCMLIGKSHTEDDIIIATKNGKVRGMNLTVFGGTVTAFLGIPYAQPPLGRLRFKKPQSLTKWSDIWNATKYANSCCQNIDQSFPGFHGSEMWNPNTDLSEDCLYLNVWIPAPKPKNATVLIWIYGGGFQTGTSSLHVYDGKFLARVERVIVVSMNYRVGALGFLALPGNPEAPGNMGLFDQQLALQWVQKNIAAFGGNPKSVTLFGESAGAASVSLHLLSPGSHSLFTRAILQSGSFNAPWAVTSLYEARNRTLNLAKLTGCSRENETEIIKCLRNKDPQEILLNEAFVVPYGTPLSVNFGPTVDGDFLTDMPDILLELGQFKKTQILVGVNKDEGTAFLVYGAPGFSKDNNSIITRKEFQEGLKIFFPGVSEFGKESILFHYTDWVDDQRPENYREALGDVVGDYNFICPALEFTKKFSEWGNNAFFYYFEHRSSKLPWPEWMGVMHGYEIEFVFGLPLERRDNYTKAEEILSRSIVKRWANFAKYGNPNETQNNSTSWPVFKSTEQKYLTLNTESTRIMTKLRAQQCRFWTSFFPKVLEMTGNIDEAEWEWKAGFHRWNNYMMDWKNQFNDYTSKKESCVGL
# TEST METHOD NOTES: Inhibition of BChE (unknown origin)
ASSAY ENDPOINT: pIC50
Field pIC50 (float): negative decimal logarithm of the concentration in molar.

Report its pIC50 with Cholinesterase (Homo sapiens, UniProt P06276) as the test system: O=C(Nc1cncc(OCC2CCN(Cc3ccc(F)cc3)CC2)c1)c1ccnc(NC(=O)C2CC2)c1
5.28
